Biological target: T1, glucose-dependent insulinotropic peptide (gastric inhibitory polypeptide) receptor (GIPR), primary cAMP assay (human, UniProt P48546 22-466)
T1 sequence (looked up): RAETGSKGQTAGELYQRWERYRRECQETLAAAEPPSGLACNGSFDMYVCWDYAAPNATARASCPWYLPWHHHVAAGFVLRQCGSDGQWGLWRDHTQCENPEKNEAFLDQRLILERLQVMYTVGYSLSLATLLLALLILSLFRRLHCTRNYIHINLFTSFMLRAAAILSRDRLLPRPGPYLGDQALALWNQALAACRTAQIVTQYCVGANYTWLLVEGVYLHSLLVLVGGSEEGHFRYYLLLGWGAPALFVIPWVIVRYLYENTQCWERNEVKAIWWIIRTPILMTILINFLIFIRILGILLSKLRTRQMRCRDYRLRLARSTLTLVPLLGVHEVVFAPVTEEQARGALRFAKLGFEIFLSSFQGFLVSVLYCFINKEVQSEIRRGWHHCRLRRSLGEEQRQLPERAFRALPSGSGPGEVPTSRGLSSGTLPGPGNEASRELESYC
Assay: cell-based or functional assay
Starred links: 1 amine or outer side, 2 acyl side, 3 side chain; linkers in the order of their positions; H or OH if unused. Non-standard residues stand in square brackets, D forms with d. Groups on a side chain read outwards from the residue. Primed or numbered codes have the meaning given here. No end group written: not given here. *: point of attachment. γGlu = O=C(O)[C@H](CCC(=O)[*:2])N[*:1]; αMeF = C[C@](N)(Cc1ccccc1)C(=O)O; αMeK = C[C@](N)(CCCCN)C(=O)O; Lauroyl = CCCCCCCCCCCC(=O)*; αMeS = C[C@](N)(CO)C(=O)O; PEG2′ = not defined here; Aib = CC(C)(N)C(=O)O
measure: Primary assay EC50 (cAMP), n2 (nM)

binder="H[Aib]EGS[αMeF]TSDV[αMeS]SK([PEG2′-PEG2′-γGlu-Lauroyl])LEGEAA[αMeK]EFIAWK([PEG2′-PEG2′-γGlu-Lauroyl])VEGG-NH2 [SEQ ID NO: 264]" unit=nM obs_value=22.6
binder="H[Aib]EGS[αMeF]TSDV[αMeS]SK([PEG2′-PEG2′-γGlu-Lauroyl])LEGEAA[αMeK]EFIK([PEG2′-PEG2′-γGlu-Lauroyl])WVVEGG-NH2 [SEQ ID NO: 262]" unit=nM obs_value=22.5
